# study_system: HIV Env of isolate ZM214M.PL15 (clade C) (HIV)
# protocol_text: cell-based or functional assay
quantity_kind: IC50 (µg/ml) with constrains

For ePGDM5 (antibody, V domains shown) VH: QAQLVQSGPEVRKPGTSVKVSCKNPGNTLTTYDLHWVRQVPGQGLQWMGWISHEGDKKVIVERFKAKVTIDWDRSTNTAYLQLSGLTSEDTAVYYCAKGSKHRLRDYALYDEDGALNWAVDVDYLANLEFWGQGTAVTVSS VL: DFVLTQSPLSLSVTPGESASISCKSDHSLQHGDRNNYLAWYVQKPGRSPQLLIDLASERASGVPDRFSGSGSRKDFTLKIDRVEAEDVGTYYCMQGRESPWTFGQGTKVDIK , what is its reported IC50 (µg/ml) with constrains?
> 100 µg/mL

Entry ePGDM13 (antibody, V domains shown) VH: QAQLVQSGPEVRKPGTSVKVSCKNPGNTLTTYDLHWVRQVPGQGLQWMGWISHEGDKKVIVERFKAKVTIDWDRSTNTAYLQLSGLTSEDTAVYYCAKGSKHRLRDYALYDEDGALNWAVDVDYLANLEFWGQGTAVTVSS VL: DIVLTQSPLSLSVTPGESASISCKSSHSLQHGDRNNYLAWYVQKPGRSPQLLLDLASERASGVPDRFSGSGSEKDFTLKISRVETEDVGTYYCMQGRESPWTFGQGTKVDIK has what IC50 (µg/ml) with constrains?
> 100 µg/mL

Entry PGDM1400 (antibody, V domains shown) VH: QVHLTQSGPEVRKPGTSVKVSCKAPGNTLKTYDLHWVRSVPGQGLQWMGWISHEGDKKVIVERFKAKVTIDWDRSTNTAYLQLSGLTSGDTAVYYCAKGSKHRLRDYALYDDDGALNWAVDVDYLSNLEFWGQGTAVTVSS VL: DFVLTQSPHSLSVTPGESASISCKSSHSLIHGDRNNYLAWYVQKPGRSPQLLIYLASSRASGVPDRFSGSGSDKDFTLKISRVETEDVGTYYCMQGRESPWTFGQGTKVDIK : reported IC50 (µg/ml) with constrains = ?
> 100 µg/mL

Tell me the measured IC50 (µg/ml) with constrains of ePGDM9 (antibody, V domains shown) VH: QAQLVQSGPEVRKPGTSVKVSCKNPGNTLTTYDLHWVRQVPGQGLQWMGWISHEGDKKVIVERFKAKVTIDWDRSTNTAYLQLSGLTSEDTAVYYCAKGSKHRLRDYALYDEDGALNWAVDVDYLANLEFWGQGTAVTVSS VL: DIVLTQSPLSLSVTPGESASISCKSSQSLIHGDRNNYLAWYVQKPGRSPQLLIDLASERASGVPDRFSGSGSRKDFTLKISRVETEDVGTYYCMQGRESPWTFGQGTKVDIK , please.
> 100 µg/mL
